Answer each item with its documented inhibition.
TEST TARGET: Adenosine receptor A2b (Homo sapiens)
ASSAY SUMMARY: Displacement of [3H]DPCPX from human adenosine A2B receptor extracted from HEK293 cell membrane assessed as inhibition of [3H]DPCPX binding at 10 uM incubated for 30 mins by microplate beta scintillation counter relative to control
Type: cell membranes
One number for each entry, in %.

Below are 2 compounds. Give each one its inhibition.
1. Nc1nc(Cl)nc2c1ncn2[C@@H]1[Se]C[C@@H](O)[C@H]1O
2. CNc1ncnc2c1ncn2[C@@H]1[Se]C[C@@H](O)[C@H]1O

35
1

Below are 6 compounds. Give each one its inhibition.
1. O[C@@H]1[C@H](O)C[Se][C@H]1n1cnc2c(NCc3cccc(I)c3)ncnc21
2. CNc1nc(Cl)nc2c1ncn2[C@@H]1[Se]C[C@@H](O)[C@H]1O
3. O[C@@H]1[C@H](O)C[Se][C@H]1n1cnc2c(NCc3cccc(Cl)c3)ncnc21
4. O[C@@H]1[C@H](O)C[Se][C@H]1n1cnc2c(NC3CC3)ncnc21
5. O[C@@H]1[C@H](O)C[Se][C@H]1n1cnc2c(NCc3cccc(I)c3)nc(Cl)nc21
6. O[C@@H]1[C@H](O)C[Se][C@H]1n1cnc2c(NCc3cccc(Br)c3)nc(Cl)nc21

1. 20
2. 28
3. 30
4. 15
5. 67
6. 43

Below are 6 compounds. Give each one its inhibition.
1. Nc1ncnc2c1ncn2[C@@H]1[Se]C[C@@H](O)[C@H]1O
2. CCNc1nc(Cl)nc2c1ncn2[C@@H]1[Se]C[C@@H](O)[C@H]1O
3. O[C@@H]1[C@H](O)C[Se][C@H]1n1cnc2c(NCc3cccc(Br)c3)ncnc21
4. O[C@@H]1[C@H](O)C[Se][C@H]1n1cnc2c(NC3CC3)nc(Cl)nc21
5. O[C@@H]1[C@H](O)C[Se][C@H]1n1cnc2c(NCc3cccc(F)c3)ncnc21
6. O[C@@H]1[C@H](O)C[Se][C@H]1n1cnc2c(NCc3cccc(Cl)c3)nc(Cl)nc21

25
18
37
29
8
41

Below are 4 compounds. Give each one its inhibition.
1. CCNc1ncnc2c1ncn2[C@@H]1[Se]C[C@@H](O)[C@H]1O
2. O[C@@H]1[C@H](O)C[Se][C@H]1n1cnc2c(NC3CCCC3)nc(Cl)nc21
3. O[C@@H]1[C@H](O)C[Se][C@H]1n1cnc2c(NCc3cccc(F)c3)nc(Cl)nc21
4. O[C@@H]1[C@H](O)C[Se][C@H]1n1cnc2c(NC3CCCC3)ncnc21

1. 7
2. 37
3. 22
4. 7

###

TEST TARGET: UniProt P29274
Sequence (P29274 whole entry): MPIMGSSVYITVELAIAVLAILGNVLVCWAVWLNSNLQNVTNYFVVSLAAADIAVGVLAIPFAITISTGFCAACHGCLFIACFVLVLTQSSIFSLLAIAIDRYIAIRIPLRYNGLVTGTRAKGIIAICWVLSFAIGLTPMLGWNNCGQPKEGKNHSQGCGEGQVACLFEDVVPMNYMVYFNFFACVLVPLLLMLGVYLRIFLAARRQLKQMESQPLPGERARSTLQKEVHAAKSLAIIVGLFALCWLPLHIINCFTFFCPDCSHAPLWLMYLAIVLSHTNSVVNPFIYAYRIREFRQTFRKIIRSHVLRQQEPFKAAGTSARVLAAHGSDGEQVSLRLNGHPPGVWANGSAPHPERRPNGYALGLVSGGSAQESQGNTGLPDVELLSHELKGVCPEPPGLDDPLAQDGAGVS
ASSAY SUMMARY: Displacement of [3H]ZM241385 from human adenosine A2A receptor extracted from human HeLa cell membrane assessed as inhibition of [3H]ZM241385 binding at 10 uM incubated for 30 mins by microplate beta scintillation counter relative to control
Format: cell membranes
READOUT KIND: inhibition
Returns: string containing the numeric result and its unit.

Some solved cases for reference:
CCNc1ncnc2c1ncn2[C@@H]1[Se]C[C@@H](O)[C@H]1O | 2%
O[C@@H]1[C@H](O)C[Se][C@H]1n1cnc2c(NCc3cccc(Cl)c3)nc(Cl)nc21 | 29%

Shift focus to the following entry.
Item CNc1nc(Cl)nc2c1ncn2[C@@H]1[Se]C[C@@H](O)[C@H]1O was tested on UniProt P29274; the reported inhibition is 3%

Origin of the recorded values: ChEMBL document CHEMBL5614467
